Task for the reader: assign each of the following molecules its reported viability.
- Method Description: HUVEC growth inhibition – cell-based, human, primary screen (AID 575);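 also: 100% = median of untreated cell wells with 0.1% DMSO on each plate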
- Study Conditions: HUVEC proliferation, CellTiter-Glo luminescence, 72 h; at 10 µM; stronger effect = lower value
Active and inactive are the calls of the source.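 The calls were made as follows: active = viability at or below 30% in both replicate assays; inconclusive = viability at or below 30% in just one of the two assays; inactive = the rest.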

Query: Fill in the blank: the reported viability of CCOC(=O)C1CCN(C(=O)Nc2ccc3snnc3c2)CC1 is ____.
Result: 92.2% (inactive)

Query: Input Cc1ccc(CCNC(=O)C2CCCN2S(=O)(=O)c2ccc3c(c2)CCC(=O)N3)cc1 (stereo unspecified)
Result: 91.8% (inactive)

Query: # iterate: COc1nc2ccc(C)cc2cc1-c1noc(-c2cccnc2)n1
Result: 103% (inactive)

Query: Input CC(=O)c1cc(-c2ccccc2)n(CC(=O)N2CCC(N3CCCCC3)CC2)c1C
Result: 85.3% (inactive)

Query: Param item: CCOc1ccccc1-n1nnnc1SCC(=O)Nc1cc2oc3ccccc3c2cc1OC
Result: 63.6% (inactive)

Query: COc1cc(OC)cc(-c2nc(N)n[nH]2)c1 , same question.
Result: 97.8% (inactive)
